PROTOCOL_NOTES: Quantitative highthroughput screen to assess conditional lethalithy of SEM cells grown in Human Plasma-Like Medium with dialyzed fetal bovine serum (HPLM+ds) (AID 1963882); further: nearly all actives have a fitted effect of over 35% in size
EXPERIMENTAL_SETUP: SEM B-ALL cells in HPLM+ds, CellTiter-Glo viability, 48 h; series mostly up to 45.8 µM
Inconclusive results are not listed. Calls of active or inactive are those of the source. The call rests on the fitted dose curve; in most records, active means well fitted cell-killing curve with a large enough effect; inconclusive means small, poorly fitted or top-dose-only effect, or effect the other way; inactive means no such curve, though single readings can be large or run the other way.
Outcome codes: T for active, F for inactive

CN1CCN(Cc2ccc(NC(=O)Nc3ccc(Oc4cc(NC(=O)C5CC5)ncn4)cc3)cc2C(F)(F)F)CC1 ... T
Cc1cnc(-c2cc(N3CCN(C(=O)CCS(C)(=O)=O)CC3)ncc2Cl)c(C)c1 ... F
CN(C)c1ccccc1CN1CCCN(Cc2ccccc2N(C)C)C1c1ccncc1 ... F
O=C(O)c1ccc2cc(-c3ccc(O)c(C45CC6CC(CC(C6)C4)C5)c3)ccc2c1 ... T
CCN(C(=O)c1c(O)c2c(Cl)cccc2n(C)c1=O)c1ccccc1 ... T

---

PROTOCOL_NOTES: Cellular viability qHTS for adrenocortical cancer (ACC) cell line NCI-H295R (AID 1963990); further: nearly all actives have a fitted effect of over 60% in size; further: potency means the concentration at half of the fitted maximal effect
EXPERIMENTAL_SETUP: CellTiter-Glo ATP luminescence, 48 h; series mostly up to 46.1 µM
Description: PI: Naris Nilubol, MD Surgical Oncology Program, National Cancer Institute (NCI) National Institute of Health (NIH), Bethesda, Maryland Adrenocortical cancer (ACC) is a rare malignancy with poor survival outcomes and few treatment options. Currently, mitotane is the only FDA-approved therapy for ACC. […] Through a quantitative high-throughput drug screen (qHTS), we identified auranofin (AF), a thioredoxin reductase (TXNRD) inhibitor, as a promising candidate drug. […]
Records with an inconclusive call do not appear. Active and inactive are the calls of the source. Calls come from the whole dose curve; as a rule, active = well fitted cell-killing curve with a large enough effect; inconclusive = small, poorly fitted or top-dose-only effect; inactive = flat fitted curve, though single readings scatter.
READOUT_LABEL: Potency

O=C(CN1CCNCC1)NC1CCCCC1 ... inactive
Cc1onc(-c2ccccc2Cl)c1C(=O)N[C@@H]1C(=O)N2[C@@H]1SC(C)(C)[C@@H]2C(=O)O ... inactive
COc1ccc(C(=O)CC(=O)c2ccc(C(C)(C)C)cc2)cc1 ... inactive
Oc1ccccc1C=NCc1ccccc1 ... inactive
CCN1CCC[C@H]1CNC(=O)c1cc(S(N)(=O)=O)ccc1OC ... inactive
COC(=O)N1CCN(Cc2cccc(NC(=O)Nc3ccc(C)nc3)c2F)CC1 ... inactive
CC(=O)[C@@]1(O)CC[C@H]2[C@@H]3C[C@H](C)C4=CC(=O)CC[C@]4(C)[C@H]3CC[C@@]21C ... inactive
CCOc1cc(C(C)(C)C)ccc1C1=N[C@@](C)(c2ccc(Cl)cc2)[C@@](C)(c2ccc(Cl)cc2)N1C(=O)N1CCN(CC(=O)N2CCOCC2)CC1 ... 14.1 µM (active)
O=C1C(=O)c2ccccc2C(O)=C1C1CCC(c2ccc(Cl)cc2)CC1 (stereo unspecified) ... inactive
O=c1[nH]cnc2nc[nH]c12 ... inactive
Nc1nc2ccc(OC(F)(F)F)cc2s1 ... 20 µM (active)

---

PROTOCOL_NOTES: Quantitative highthroughput screen to assess conditional lethalithy of P12 Ichikawa cells grown in Human Plasma-Like Medium with dialyzed fetal bovine serum (HPLM+ds) (AID 1963879); further: nearly all actives have a fitted effect of over 35% in size
EXPERIMENTAL_SETUP: ATP luminescence, 48 h; viability; series mostly up to 45.8 µM
Method: Assay Provider: Jason Cantor Ph.D. Department of Biochemistry University of Wisconsin-Madison, Madison, WI, USA Chemical screening studies have identified drug sensitivities across hundreds of cancer cell lines but most putative therapeutics fail to translate. […] Sets of conditional anticancer compounds spanned phases of clinical development and included non-oncology drugs were assessed. […] 6; Detection; Luminescence, Viewlux PerkinElmer. […]
Records with an inconclusive call do not appear. Active and inactive are the calls of the source. Calls follow the shape of the dose curve; as a rule, active = well fitted cell-killing curve with a large enough effect; inconclusive = small, poorly fitted or top-dose-only effect; inactive = flat fitted curve, though single readings scatter. Bridge positions count the residues as written; N and C are the ends. Square brackets hold non-standard residues; d marks the D form. Peptide text beside a SMILES is read from it. * marks the point of attachment. ξ: configuration not given here. Octanoyl(6-Me) = CCC(C)CCCCC(=O)*; ξThr(3R) = C[C@@H](O)C(N)C(=O)O; dDab = NCC[C@@H](N)C(=O)O; Dab = NCC[C@H](N)C(=O)O
Outcomes: YES for active, NO for inactive

O=C(NCC1CCCCN1)c1cc(OCC(F)(F)F)ccc1OCC(F)(F)F (configuration not stated) ... YES
C1COC(NC(C2CC2)C2CC2)=N1 ... NO
O=C(NC(Cc1cc(=O)[nH]c2ccccc12)C(=O)O)c1ccc(Cl)cc1 (configuration not stated) ... NO
CC(S)C(=O)NCC(=O)O (configuration not stated) ... NO
C[C@H]1Oc2cc(cnc2N)-c2c(nn(C)c2C#N)CN(C)C(=O)c2ccc(F)cc21 ... NO
COCCOc1nc(-c2ccc(Cl)c(Cl)c2)n(-c2ccc(NC(=O)CCl)cc2)n1 ... NO
CS(=O)(=O)c1ccc(Oc2cc(F)cc(C#N)c2)c2c1[C@H](O)C(F)(F)C2 ... NO
O=C1NC(=O)C(=Cc2cccc(C(F)(F)F)c2)S1 ... NO
CC(C)(O)[C@H]1CC[C@@](C)([C@H]2[C@@H](O)C[C@@]3(C)[C@@H]4C[C@H](O[C@@H]5O[C@H](CO)[C@@H](O)[C@H](O)[C@@H]5O)[C@H]5C(C)(C)[C@@H](O[C@@H]6OC[C@@H](O)[C@H](O)[C@@H]6O)CC[C@@]56C[C@@]46CC[C@]23C)O1 ... NO
Cc1ccccc1C(OCCN(C)C)c1ccccc1 (configuration not stated) ... NO
OCCNC1CCCc2c1[nH]c1ccc(-c3ccccc3)cc21 (configuration not stated) ... YES
COc1cc(NC(=O)c2ccc(-c3ccc(Cl)cc3)o2)cc(OC)c1 ... NO
CCn1c(-c2nonc2N)nc2cncc(CNC3CCNCC3)c21 ... YES
C[N+]1(C)[C@@H]2C[C@@H](OC(=O)C(O)(c3cccs3)c3cccs3)C[C@H]1[C@@H]1O[C@@H]12 ... NO
COC(=O)C1=C(C)NC(C)=C(C(=O)OCCCN2CCC(c3ccccc3)(c3ccccc3)CC2)C1c1cccc([N+](=O)[O-])c1 (configuration not stated) ... NO
CCC(C)CCCCC(=O)N[C@@H](CCN)C(=O)NC(C(=O)N[C@H](CCN)C(=O)N[C@@H]1CCNC(=O)C([C@@H](C)O)NC(=O)[C@@H](CCN)NC(=O)[C@@H](CCN)NC(=O)[C@@H](CC(C)C)NC(=O)[C@H](Cc2ccccc2)NC(=O)[C@H](CCN)NC1=O)[C@@H](C)O (stereo partly drawn) ({Octanoyl(6-Me)}-[Dab][ξThr(3R)][dDab][dDab][Dab]F[dL][dDab][dDab][ξThr(3R)]; lactam 4-C) ... NO
CCCC(CCC)C(=O)O ... NO

---

PROTOCOL_NOTES: Cellular viability qHTS for adrenocortical cancer (ACC) cell line NCI-H295R (AID 1963990); further: nearly all actives have a fitted effect of over 60% in size
EXPERIMENTAL_SETUP: CellTiter-Glo ATP luminescence, 48 h; series mostly up to 46.1 µM
Inconclusive results are not listed. Active and inactive are the calls of the source. The call rests on the fitted dose curve; in most records, active means well fitted cell-killing curve with a large enough effect; inconclusive means small, poorly fitted or top-dose-only effect; inactive means flat fitted curve, though single readings scatter.
Labels: YES for active, NO for inactive

O=C([O-])C[O-].[Pt+2] ... NO
CC(C)(C)NC[C@H](O)COc1cccc2c1CCCC2=O ... NO
CCCCCCCCCCCCCCCCOP(=O)([O-])OCC[N+](C)(C)C ... YES
COc1cc(CCc2cc(NC(=O)c3ccc(N4C[C@@H](C)N[C@@H](C)C4)cc3)n[nH]2)cc(OC)c1 ... YES
C=C(CC)C(=O)c1ccc(OCC(=O)O)c(Cl)c1Cl ... YES
Cc1c(CCOc2ccc(C(=O)O)cc2)c2cc(Cl)ccc2n1C(c1ccccc1)c1ccccc1 ... NO

---

PROTOCOL_NOTES: Viability qHTS for spleen associated tyrosine kinase inhibitor (SYKi) naive MV4-11 cells (AID 1963823); further: nearly all actives have a fitted effect of over 40% in size
EXPERIMENTAL_SETUP: MV4-11 AML viability, CellTiter-Glo luminescence, 72 h; series mostly up to 45 µM
Inconclusive results are not listed. The source made the active and inactive calls. The call rests on the fitted dose curve; in most records, active means well fitted cell-killing curve with a large enough effect; inconclusive means small, poorly fitted or top-dose-only effect, or effect the other way; inactive means no such curve, though single readings can be large or run the other way.
Outcome codes: yes = active, no = inactive

O=C(CCOCCOCCOCCOCCC(=O)Nc1c(I)cc(I)c(C(=O)O)c1I)Nc1c(I)cc(I)c(C(=O)O)c1I ... no
Clc1ccc(Cn2c(CN3CCCC3)nc3ccccc32)cc1 ... yes
COC(=O)C1=CO[C@@H](O[C@@H]2O[C@H](CO)[C@@H](O)[C@H](O)[C@H]2O)[C@@H]2[C@@](C)(O)[C@@H](O)C[C@]12O ... no
C=C1C(=O)O[C@@H]2/C=C(\C)CC/C=C(/C=O)[C@H](OC)[C@@H](OC(=O)C(C)C)[C@@H]12 ... yes
O=C(O)C1(Cc2cccc(Nc3nccs3)n2)CCC(Oc2cccc(Cl)c2F)CC1 (stereo not given) ... yes
